Values were extracted from ChEMBL document CHEMBL3044631.

Form field: Activity (one value per entry).
- System: NCI-H522
- assay overview: Anticancer activity against Homo sapiens (human) NCI-H522 cells assessed as cell growth promotion at 10 uM after 48 hr by SRB assay
- Format: functional

| query smiles | Activity [%] |
| --- | --- |
| Cc1ccc(Nn2c(SCC(=O)Nc3nc(-c4ccccc4)cs3)nc(C)c2C)cc1 | 49.7 |
| COc1ccc(Nn2c(SCC(=O)Nc3nccs3)nc(C)c2C)cc1 | 95.16 |
| Cc1nc(SCC(=O)Nc2nc(-c3ccc(Cl)cc3)cs2)n(Nc2ccccc2)c1C | 47.28 |
| CCOC(=O)c1csc(NC(=O)CSc2nc(C)c(C)n2Nc2ccc(C)cc2)n1 | 76.3 |
| COc1ccc(Nn2c(SCC(=O)Nc3nc(-c4ccc(Cl)cc4)cs3)nc(C)c2C)cc1 | 66.22 |
| Cc1nc(SCC(=O)Nc2nccs2)n(Nc2ccc(Cl)cc2)c1C | 111.97 |
| Cc1nc(SCC(=O)Nc2nccs2)n(Nc2ccccc2)c1C | 102.09 |

----------
- System: DU-145
- assay overview: Anticancer activity against Homo sapiens (human) DU145 cells assessed as cell growth promotion at 10 uM after 48 hr by SRB assay
- Assay type: functional

| query smiles | u | Activity |
| --- | --- | --- |
| CCOC(=O)c1csc(NC(=O)CSc2nc(C)c(C)n2Nc2ccc(C)cc2)n1 | % | 108.96 |
| Cc1nc(SCC(=O)Nc2nccs2)n(Nc2ccccc2)c1C | % | 116.36 |
| Cc1nc(SCC(=O)Nc2nc(-c3ccc(Cl)cc3)cs2)n(Nc2ccccc2)c1C | % | 65.41 |
| Cc1ccc(Nn2c(SCC(=O)Nc3nc(-c4ccccc4)cs3)nc(C)c2C)cc1 | % | 83.4 |
| COc1ccc(Nn2c(SCC(=O)Nc3nc(-c4ccc(Cl)cc4)cs3)nc(C)c2C)cc1 | % | 79.62 |
| Cc1nc(SCC(=O)Nc2nccs2)n(Nc2ccc(Cl)cc2)c1C | % | 122.72 |
| COc1ccc(Nn2c(SCC(=O)Nc3nccs3)nc(C)c2C)cc1 | % | 112.49 |

----------
- Test system: U-251
- assay overview: Anticancer activity against Homo sapiens (human) U251 cells assessed as cell growth promotion at 10 uM after 48 hr by SRB assay
- Assay type: functional
Form field: Activity (one value per entry).
experimental endpoint: Activity

| query smiles | measurement |
| --- | --- |
| CCOC(=O)c1csc(NC(=O)CSc2nc(C)c(C)n2Nc2ccc(C)cc2)n1 | 76.07% |
| COc1ccc(Nn2c(SCC(=O)Nc3nc(-c4ccc(Cl)cc4)cs3)nc(C)c2C)cc1 | 43.51% |
| COc1ccc(Nn2c(SCC(=O)Nc3nccs3)nc(C)c2C)cc1 | 104.49% |
| Cc1nc(SCC(=O)Nc2nccs2)n(Nc2ccc(Cl)cc2)c1C | 108.53% |
| Cc1nc(SCC(=O)Nc2nccs2)n(Nc2ccccc2)c1C | 102.44% |
| Cc1nc(SCC(=O)Nc2nc(-c3ccc(Cl)cc3)cs2)n(Nc2ccccc2)c1C | 36.61% |
| Cc1ccc(Nn2c(SCC(=O)Nc3nc(-c4ccccc4)cs3)nc(C)c2C)cc1 | 49.3% |

----------
Form field: Activity (one value per entry).
- Test system: SK-MEL-28
- assay overview: Anticancer activity against Homo sapiens (human) SK-MEL-28 cells assessed as cell growth promotion at 10 uM after 48 hr by SRB assay
- Format: functional

| query smiles | Activity (%) |
| --- | --- |
| Cc1nc(SCC(=O)Nc2nccs2)n(Nc2ccc(Cl)cc2)c1C | 111.02 |
| CCOC(=O)c1csc(NC(=O)CSc2nc(C)c(C)n2Nc2ccc(C)cc2)n1 | 80.17 |
| Cc1nc(SCC(=O)Nc2nc(-c3ccc(Cl)cc3)cs2)n(Nc2ccccc2)c1C | 54.29 |
| Cc1ccc(Nn2c(SCC(=O)Nc3nc(-c4ccccc4)cs3)nc(C)c2C)cc1 | 77.24 |
| COc1ccc(Nn2c(SCC(=O)Nc3nc(-c4ccc(Cl)cc4)cs3)nc(C)c2C)cc1 | 82.63 |
| Cc1nc(SCC(=O)Nc2nccs2)n(Nc2ccccc2)c1C | 99.72 |
| COc1ccc(Nn2c(SCC(=O)Nc3nccs3)nc(C)c2C)cc1 | 113.96 |

----------
- Test system: PC-3
- assay overview: Anticancer activity against Homo sapiens (human) PC3 cells assessed as cell growth promotion at 10 uM after 48 hr by SRB assay
- Assay type: functional

| query smiles | u | Activity |
| --- | --- | --- |
| Cc1nc(SCC(=O)Nc2nc(-c3ccc(Cl)cc3)cs2)n(Nc2ccccc2)c1C | % | 59.13 |
| Cc1nc(SCC(=O)Nc2nccs2)n(Nc2ccccc2)c1C | % | 93.56 |
| COc1ccc(Nn2c(SCC(=O)Nc3nccs3)nc(C)c2C)cc1 | % | 103.43 |
| COc1ccc(Nn2c(SCC(=O)Nc3nc(-c4ccc(Cl)cc4)cs3)nc(C)c2C)cc1 | % | 35.69 |
| Cc1ccc(Nn2c(SCC(=O)Nc3nc(-c4ccccc4)cs3)nc(C)c2C)cc1 | % | 71.8 |
| CCOC(=O)c1csc(NC(=O)CSc2nc(C)c(C)n2Nc2ccc(C)cc2)n1 | % | 88.3 |
| Cc1nc(SCC(=O)Nc2nccs2)n(Nc2ccc(Cl)cc2)c1C | % | 103.63 |

----------
- System: SK-MEL-5
- assay overview: Anticancer activity against Homo sapiens (human) SK-MEL-5 cells assessed as cell growth promotion at 10 uM after 48 hr by SRB assay
- Assay type: functional

| query smiles | Activity [%] |
| --- | --- |
| Cc1nc(SCC(=O)Nc2nccs2)n(Nc2ccc(Cl)cc2)c1C | 84.95 |
| Cc1nc(SCC(=O)Nc2nc(-c3ccc(Cl)cc3)cs2)n(Nc2ccccc2)c1C | 10.19 |
| COc1ccc(Nn2c(SCC(=O)Nc3nccs3)nc(C)c2C)cc1 | 102.75 |
| Cc1nc(SCC(=O)Nc2nccs2)n(Nc2ccccc2)c1C | 94.75 |
| Cc1ccc(Nn2c(SCC(=O)Nc3nc(-c4ccccc4)cs3)nc(C)c2C)cc1 | 66.75 |
| COc1ccc(Nn2c(SCC(=O)Nc3nc(-c4ccc(Cl)cc4)cs3)nc(C)c2C)cc1 | -21.47 |
| CCOC(=O)c1csc(NC(=O)CSc2nc(C)c(C)n2Nc2ccc(C)cc2)n1 | 47.48 |
